- Tested on: Staphylococcus aureus
- Measurement notes: Antibacterial activity against methicillin-resistant Staphylococcus aureus 109244 clinical isolate after 20 to 24 hrs by two-fold microdilution method
- Format: functional
Observation type: MIC (µg/mL)
Provide the reading as a plain figure in µg/mL.

Request: Give MIC; test system Staphylococcus aureus; compound CN1CCN(CCCCCCOC(=O)c2c3c(n4cc(Br)ccc24)C(=O)c2ncccc2C3=O)CC1
Result: 0.125

Others:
Request: Give MIC; test system Staphylococcus aureus; compound O=C1c2cccnc2C(=O)c2c1c(C(=O)OCCCCCN1CCOCC1)c1ccc(Br)cn21
Result: 0.031

Request: Give MIC; test system Staphylococcus aureus; compound O=C1c2cccnc2C(=O)c2c1c(C(=O)OCCCCN1CCOCC1)c1ccc(Br)cn21
Result: 0.25

Request: Give MIC; test system Staphylococcus aureus; compound CN(C)CCCCCOC(=O)c1c2c(n3cc(Br)ccc13)C(=O)c1ncccc1C2=O
Result: 0.5

Request: Give MIC; test system Staphylococcus aureus; compound O=C1c2cccnc2C(=O)c2c1c(C(=O)OCCCCCCN1CCCCC1)c1ccc(Br)cn21
Result: 0.031

----------
- Tested on: Staphylococcus aureus
- Measurement notes: Antibacterial activity against methicillin-resistant Staphylococcus aureus 125025 clinical isolate after 20 to 24 hrs by two-fold microdilution method
- Assay type: functional
The reader will find reported MIC values listed item by item below.

Request: For the compound CN1CCN(CCCCCCOC(=O)c2c3c(n4cc(Br)ccc24)C(=O)c2ncccc2C3=O)CC1 , give its reported MIC.
Result: ≤ 0.0078 µg/mL

Others:
Request: For the compound CN(C)CCCCCOC(=O)c1c2c(n3cc(Br)ccc13)C(=O)c1ncccc1C2=O , give its reported MIC.
Result: 0.5 µg/mL

Request: For the compound O=C1c2cccnc2C(=O)c2c1c(C(=O)OCCCCCCN1CCCCC1)c1ccc(Br)cn21 , give its reported MIC.
Result: 0.125 µg/mL

Request: For the compound O=C1c2cccnc2C(=O)c2c1c(C(=O)OCCCCCN1CCOCC1)c1ccc(Br)cn21 , give its reported MIC.
Result: ≤ 0.0078 µg/mL

Request: For the compound O=C1c2cccnc2C(=O)c2c1c(C(=O)OCCCCCCN1CCOCC1)c1ccc(Br)cn21 , give its reported MIC.
Result: ≤ 0.0078 µg/mL

Request: For the compound O=C1c2cccnc2C(=O)c2c1c(C(=O)OCCCCN1CCOCC1)c1ccc(Br)cn21 , give its reported MIC.
Result: 0.25 µg/mL

----------
- Test system: Staphylococcus aureus
- Measurement notes: Antibacterial activity against methicillin-resistant Staphylococcus aureus 122045 clinical isolate after 20 to 24 hrs by two-fold microdilution method
- Assay type: functional
Observation type: MIC (µg/mL)
Provide the reading as a plain figure in µg/mL.

Request: For the compound O=C1c2cccnc2C(=O)c2c1c(C(=O)OCCCCN1CCOCC1)c1ccc(Br)cn21 , give its reported MIC.
Result: 0.125

Request: For the compound CN1CCN(CCCCCCOC(=O)c2c3c(n4cc(Br)ccc24)C(=O)c2ncccc2C3=O)CC1 , give its reported MIC.
Result: 0.063

Request: For the compound O=C1c2cccnc2C(=O)c2c1c(C(=O)OCCCCCCN1CCCCC1)c1ccc(Br)cn21 , give its reported MIC.
Result: 0.031

Others:
Request: For the compound O=C1c2cccnc2C(=O)c2c1c(C(=O)OCCCCCN1CCOCC1)c1ccc(Br)cn21 , give its reported MIC.
Result: 0.063

Request: For the compound CN(C)CCCCCOC(=O)c1c2c(n3cc(Br)ccc13)C(=O)c1ncccc1C2=O , give its reported MIC.
Result: 0.25

----------
- System: Staphylococcus aureus
- Measurement notes: Antibacterial activity against methicillin-resistant Staphylococcus aureus 519030 clinical isolate after 20 to 24 hrs by two-fold microdilution method
- Assay type: functional
Observation type: MIC (µg/mL)
Provide the reading as a plain figure in µg/mL.

Please review the entries below; each comes with its answer.
Request: For the compound CN(C)CCCCCOC(=O)c1c2c(n3cc(Br)ccc13)C(=O)c1ncccc1C2=O , give its reported MIC.
Result: 0.5

Request: For the compound O=C1c2cccnc2C(=O)c2c1c(C(=O)OCCCCCN1CCOCC1)c1ccc(Br)cn21 , give its reported MIC.
Result: 0.063

Request: For the compound O=C1c2cccnc2C(=O)c2c1c(C(=O)OCCCCCCN1CCCCC1)c1ccc(Br)cn21 , give its reported MIC.
Result: 0.063

Request: For the compound CN1CCN(CCCCCCOC(=O)c2c3c(n4cc(Br)ccc24)C(=O)c2ncccc2C3=O)CC1 , give its reported MIC.
Result: 0.5

Please look at the following compound next.
Request: For the compound O=C1c2cccnc2C(=O)c2c1c(C(=O)OCCCCN1CCOCC1)c1ccc(Br)cn21 , give its reported MIC.
Result: 1

----------
- Test system: Staphylococcus aureus
- Measurement notes: Antibacterial activity against methicillin-resistant Staphylococcus aureus 11819 clinical isolate after 20 to 24 hrs by two-fold microdilution method
- Format: functional
Observation type: MIC (µg/mL)
Provide the reading as a plain figure in µg/mL.

Please review the entries below; each comes with its answer.
Request: For the molecule O=C1c2cccnc2C(=O)c2c1c(C(=O)OCCCCN1CCOCC1)c1ccc(Br)cn21 , give its reported MIC.
Result: 0.125

Request: For the molecule CN1CCN(CCCCCCOC(=O)c2c3c(n4cc(Br)ccc24)C(=O)c2ncccc2C3=O)CC1 , give its reported MIC.
Result: 0.063

Request: For the molecule CN(C)CCCCCOC(=O)c1c2c(n3cc(Br)ccc13)C(=O)c1ncccc1C2=O , give its reported MIC.
Result: 0.125

Please look at the following molecule next.
Request: For the molecule O=C1c2cccnc2C(=O)c2c1c(C(=O)OCCCCCCN1CCCCC1)c1ccc(Br)cn21 , give its reported MIC.
Result: 0.063

----------
The reader will find reported MIC values listed item by item below.
- Tested on: Staphylococcus aureus
- Measurement notes: Antibacterial activity against methicillin-resistant Staphylococcus aureus 102849 clinical isolate after 20 to 24 hrs by two-fold microdilution method
- Assay type: functional
Provide the reading as a plain figure in µg/mL.

Please review the entries below; each comes with its answer.
Request: For the molecule CN(C)CCCCCOC(=O)c1c2c(n3cc(Br)ccc13)C(=O)c1ncccc1C2=O , give its reported MIC.
Result: 0.25

Request: For the molecule O=C1c2cccnc2C(=O)c2c1c(C(=O)OCCCCN1CCOCC1)c1ccc(Br)cn21 , give its reported MIC.
Result: 0.5

Request: For the molecule O=C1c2cccnc2C(=O)c2c1c(C(=O)OCCCCCN1CCOCC1)c1ccc(Br)cn21 , give its reported MIC.
Result: 0.063

Request: For the molecule CN1CCN(CCCCCCOC(=O)c2c3c(n4cc(Br)ccc24)C(=O)c2ncccc2C3=O)CC1 , give its reported MIC.
Result: 0.125

Please look at the following molecule next.
Request: For the molecule O=C1c2cccnc2C(=O)c2c1c(C(=O)OCCCCCCN1CCCCC1)c1ccc(Br)cn21 , give its reported MIC.
Result: 0.063

----------
- Tested on: Escherichia coli
- Measurement notes: Antibacterial activity against Escherichia coli ATCC 25922 after 20 to 24 hrs by two-fold microdilution method
- Type: functional
Observation type: log10 MIC (log10 of the value in µg/mL)
# log10 transformed; quantity=MIC; unit=µg/mL

Request: Give log10 MIC; test system Escherichia coli; compound O=C1c2cccnc2C(=O)c2c1c(C(=O)OCC(O)CO)c1ccc(Br)cn21 (centres undefined)
Result: 0.60

Request: Give log10 MIC; test system Escherichia coli; compound CN(C)CCCCCOC(=O)c1c2c(n3cc(Br)ccc13)C(=O)c1ncccc1C2=O
Result: 0.00

Request: Give log10 MIC; test system Escherichia coli; compound COP(=O)(CCOC(=O)c1c2c(n3cc(Br)ccc13)C(=O)c1ncccc1C2=O)OC
Result: 1.20

Request: Give log10 MIC; test system Escherichia coli; compound O=C1c2cccnc2C(=O)c2c1c(C(=O)OCCCCCN1CCOCC1)c1ccc(Br)cn21
Result: 0.90

Others:
Request: Give log10 MIC; test system Escherichia coli; compound O=C1c2cccnc2C(=O)c2c1c(C(=O)OCCCCCN1CCCC1)c1ccc(Br)cn21
Result: 0.30

Request: Give log10 MIC; test system Escherichia coli; compound CN(C)CCCCOC(=O)c1c2c(n3cc(Br)ccc13)C(=O)c1ncccc1C2=O
Result: 0.00

Request: Give log10 MIC; test system Escherichia coli; compound CN1CCN(CCCCCOC(=O)c2c3c(n4cc(Br)ccc24)C(=O)c2ncccc2C3=O)CC1
Result: 0.30

Request: Give log10 MIC; test system Escherichia coli; compound O=C1c2cccnc2C(=O)c2c1c(C(=O)OCCCCN1CCCC1)c1ccc(Br)cn21
Result: 0.00

Request: Give log10 MIC; test system Escherichia coli; compound O=C1c2cccnc2C(=O)c2c1c(C(=O)OCCCCCN1CCCCC1)c1ccc(Br)cn21
Result: 0.60

Request: Give log10 MIC; test system Escherichia coli; compound CN1CCN(CCOC(=O)c2c3c(n4cc(Br)ccc24)C(=O)c2ncccc2C3=O)CC1
Result: 0.00

Request: Give log10 MIC; test system Escherichia coli; compound O=C1c2cccnc2C(=O)c2c1c(C(=O)OCCO)c1ccc(Br)cn21
Result: 0.60

Request: Give log10 MIC; test system Escherichia coli; compound O=C1c2cccnc2C(=O)c2c1c(C(=O)OCCCN1CCOCC1)c1ccc(Br)cn21
Result: 1.20

Request: Give log10 MIC; test system Escherichia coli; compound O=C1c2cccnc2C(=O)c2c1c(C(=O)OCCCCCCN1CCOCC1)c1ccc(Br)cn21
Result: 0.90

Request: Give log10 MIC; test system Escherichia coli; compound O=C1c2cccnc2C(=O)c2c1c(C(=O)OCCCN1CCCCC1)c1ccc(Br)cn21
Result: 0.90

Request: Give log10 MIC; test system Escherichia coli; compound O=C1c2cccnc2C(=O)c2c1c(C(=O)OCCCCCCN1CCCC1)c1ccc(Br)cn21
Result: 0.00
